IC50 values for the molecules below.
- testedOn: Induced myeloid leukemia cell differentiation protein Mcl-1 (Homo sapiens) (UniProt Q07820)
- Sequence (Q07820 whole entry, looked up): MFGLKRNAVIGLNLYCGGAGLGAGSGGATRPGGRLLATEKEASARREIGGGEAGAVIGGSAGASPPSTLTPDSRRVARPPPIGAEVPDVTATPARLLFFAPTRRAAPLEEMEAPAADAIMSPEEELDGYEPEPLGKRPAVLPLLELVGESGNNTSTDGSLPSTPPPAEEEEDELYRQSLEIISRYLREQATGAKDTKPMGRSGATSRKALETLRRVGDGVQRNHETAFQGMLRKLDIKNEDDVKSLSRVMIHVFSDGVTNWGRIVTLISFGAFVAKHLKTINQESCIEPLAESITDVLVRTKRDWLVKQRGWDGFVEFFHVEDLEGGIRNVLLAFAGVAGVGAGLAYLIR
- protocolText: Mcl-1/Noxa binding inhibitor potency, dose response, biochemical, TR-FRET (AID 1417)
- runParameters: Mcl-1/Noxa peptide interaction, cell-free TR-FRET (terbium/rhodamine), 2 h; measured here: absolute IC50

Past entries and their recorded results:
COCCNC(=O)Nc1ccc2nc(-c3ccco3)c(-c3ccco3)nc2c1	< 400 nM
COc1ccc(-c2ccc3c(n2)sc2c(=O)[nH]c(=O)[nH]c23)cc1OC	< 400 nM

Query string: Could you tell me which IC50 is on file for "CN(C)c1ccc(NC(=O)Nc2ccc3snnc3c2)cc1" ?
Result string: < 400 nM

Query string: Could you tell me which IC50 is on file for "CC1=C(C#N)C(=O)NC(=O)/C1=C\c1ccc(-c2cc(C)c(C)cc2[N+](=O)[O-])o1" ?
Result string: < 400 nM

###

- testedOn: Induced myeloid leukemia cell differentiation protein Mcl-1 (Homo sapiens) (UniProt Q07820)
- protocolText: Mcl-1/Noxa binding inhibitor potency, dose response, biochemical, TR-FRET (AID 1417)
- runParameters: Mcl-1/Noxa peptide interaction, cell-free TR-FRET (terbium/rhodamine), 2 h; measured here: absolute IC50
pIC50: −log10 of the molar value.
pIC50 values for the compounds below.

Past entries and their recorded results:
COc1cc(/C=C2\CC/C(=C\c3cc(OC)c(O)c(OC)c3)C2=O)cc(OC)c1O	> 6.40
Cc1cc2nc(-c3ccc(SCc4ccc(C(=O)O)cc4)nc3)[nH]c2cc1C	> 6.40
Cc1cccc(-c2nc(Nc3ccc(N4CCOCC4)cc3)c3ccccc3n2)c1	> 6.40

Query string: Could you tell me which pIC50 is on file for COc1ccc(N2CCC(CNS(=O)(=O)c3cccc(C(F)(F)F)c3)C2)cc1 (centres undefined) ?
Result string: > 6.40

Query string: Could you tell me which pIC50 is on file for "O=[N+]([O-])c1ccc(N/N=C/c2ccc(O)c(O)c2O)c(S(=O)(=O)N2CCOCC2)c1" ?
Result string: > 6.40

###

- testedOn: Induced myeloid leukemia cell differentiation protein Mcl-1 (Homo sapiens) (UniProt Q07820)
- protocolText: Mcl-1/Noxa binding inhibitor potency, dose response, biochemical, TR-FRET (AID 1417)
- runParameters: Mcl-1/Noxa peptide interaction, cell-free TR-FRET (terbium/rhodamine), 2 h; measured here: absolute IC50
measuredAttribute: IC50

O=C(Cc1csc(N2CCOCC2)n1)N/N=C/c1ccc(O)c(O)c1O	< 400 nM
O=C(O)CCN1C(=O)/C(=C\c2ccc(-c3nc4ccccc4s3)o2)SC1=S	< 400 nM

Query string: Could you tell me which IC50 is on file for C=C(C)C(=O)Nc1cccc(C2=NOC3(C2)C[C@@H](C(N)=O)N(C(=O)c2ccc(Cl)cc2)C3)c1 (stereo partly specified) ?
Result string: < 400 nM

Query string: Could you tell me which IC50 is on file for "Cc1ccc([N+](=O)[O-])cc1N=Nc1c(-c2ccc([N+](=O)[O-])cc2)[nH]n(C(N)=S)c1=O" ?
Result string: < 400 nM

Query string: Could you tell me which IC50 is on file for "NC(=O)c1nn(CC(=O)Nc2ccc3c(c2)OCO3)cc1[N+](=O)[O-]" ?
Result string: > 54000 nM

Query string: Could you tell me which IC50 is on file for C=C(C)C(=O)Nc1cccc(C2=NOC3(C2)C[C@@H](C(N)=O)N(C(=O)/C=C/C=C/C)C3)c1 (stereo partly specified) ?
Result string: < 400 nM
